Origin of the recorded values: patent US20070072177A1

- TARGET_ENTITY: purified rabies virus glycoprotein (rabies virus ERA strain) (rabies virus strain ERA, UniProt P03524 20-524)
- ASSAY_SUMMARY: phage ELISA on coated purified G protein (ERA), anti-M13-HRP
READOUT_TYPE: OD 492 nm (OD 492 nm)
Give the quantity in OD 492 nm, number only.

Below: 4 binders and their reported OD 492 nm.
{"BINDER": "SC04-108 (scFv) scFv: AMAEVQLVQSGGGLVQPGGSLRLSCAASGFTFSSYGMHWVRQAPGKGLEWVAVILYDGSDKFYADSVKGRFTISRDNSKDTLYLQMNSLRAEDTAVYYCAKFMIVADDAFDIWGQGTMVTVSSGTGGSGGTGSGTGGSTDIQLTQSPSSLSASVGDRVTITCRASQGISSHLVWYQQKPGKAPKSLIYAASSLQSGVPSRFSGSESATDFTLTISSLQPEDFATYYCQQYYSYPITFGQGTRLEIKRAAA", "NUMBER": 0.363}
{"BINDER": "SC04-126 (scFv) scFv: AMAQVTLKESGPTLVNPTQTLTLTCTFSGFSLSTGGVGVGWFRQPPGKALEWLARIDWDDDKYYSTSLKTRLTISKDTSKIQVVLTMTNMDPVDTATYYCARMGFTGTYFDYWGQGTLVTVSSGTGGSGGTGSGTGGSTQSVLTQPPSVSVAPGKTARITCGGNNIGSKSVHWYQQKPGQAPVLVIYYDSDRPSGIPERFSGSNSGNTATLTISRVEAGDEADYYCQVWDSSSDHPYVFGTGTKLTVLGAAA", "NUMBER": 0.232}
{"BINDER": "SC04-144 (scFv) scFv: AMAQVQLQELGGGVVQPGRSLRLSCAASGFTFGSYGMHWVRQAPGKGLEWVATISYDGSIKDYADSEKGRFTISRDNSKNTLYLQMNSLRAEDTAVYYCAKGGKTGEFDYWGQGTLVTVSSGTGGSGGTGSGTGGSTDIQLTQSPSSLSASVGDRVTITCRASQGISSYLAWYQQKPGKGPKLLIYAASTLQSGVPSRFSGSGSGTDFSLTISSLQPEDLATYYCQQYDSYPLTFGGGTKVEIKRAAA", "NUMBER": 0.775}
{"BINDER": "SC04-120 (scFv) scFv: AMAEVQLVQSGGGLVQPGRSLRLSCAASGFTFSTYGMHWVRQAPGKGLEWVATISYDGSIKDYADSEKGRFTISRDNSKNTLYLQMNSLRAEDTAVYYCAKGGKTGEFDYWGQGTLVTVSSGTGGSGGTGSGTGGSTDIQLTQSPSTLSASVGDRVTITCRASQGINSYLAWYQQEPGKAPKLLIYAASTLQSGVPSRFSGSGSGTEFTLTISSLQPEDFATYYCQQLNSYPFTFGPGTKVDIKRAAA", "NUMBER": 0.571}

Turning to the following binder.
Field request: OD 492 nm | item: SC04-031 (scFv) scFv: AMAEVQLVESGGGVVQPGRSLRLSCAASGFTFSSYGMHWVRQAPGKGLEWVAVISYDGSNKYYADSVKGRFTISRDNSKNTLYLQMNSLRAEDTAVYYCAKGSVLGDAFDIWGQGTMVTVSSGTGGSGGTGSGTGGSTDIQMTQSPSFVSASVGDRVTITCRASQGISSWLAWYQQKPGKAPKLLIYAASSLQSGVPSRFSGSGSGTDFTLTISSLQPEDFATYYCQQANSFPLTFGGGTKVEIKRAAA
0.721
